Form field: Ki (one value per entry).
target.of.assay: human dopamine D1 receptor (Homo sapiens)
Construct: A 1.4 Kb Hind III to Xho I fragment was subcloned into the vector pMMLV; expressed in transfected cells; host or cells: CHO cells, clone CHO-D1M#9 (plasmid pHD1MMLV), membranes
Sequence (P21728 whole entry, the tested form may be a part): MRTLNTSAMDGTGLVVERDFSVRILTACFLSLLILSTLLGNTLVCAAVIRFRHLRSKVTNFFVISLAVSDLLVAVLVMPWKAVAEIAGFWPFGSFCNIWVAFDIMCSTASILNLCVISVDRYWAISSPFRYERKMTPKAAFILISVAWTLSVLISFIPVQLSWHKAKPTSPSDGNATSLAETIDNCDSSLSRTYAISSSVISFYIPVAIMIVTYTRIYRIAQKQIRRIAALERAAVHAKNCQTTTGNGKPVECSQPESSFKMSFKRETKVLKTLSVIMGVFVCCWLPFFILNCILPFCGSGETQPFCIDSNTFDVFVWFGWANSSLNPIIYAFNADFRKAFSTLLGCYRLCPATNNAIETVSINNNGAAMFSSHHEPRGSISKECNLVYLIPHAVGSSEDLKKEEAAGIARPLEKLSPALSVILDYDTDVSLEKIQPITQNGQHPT
protocol.summary: [3H]-SCH-23390 binding to cloned human dopamine D1 receptors (CHO cell membranes)
Counter-ions that a name gives are not always drawn.
Record the value in nM, omitting the unit from your answer.

Worked cases, answers included:
{"columns": ["compound", "Ki (nM)"],
 "data": [
  ["Cc1ccc2c(c1O)C[C@@H](C1CCN(C(=O)Oc3ccc(F)cc3)CC1)O[C@H]2CN [Example 118, hydrochloride]", 40],
  ["Cc1ccc2c(c1O)C[C@@H](C1CCN(C(=O)Oc3ccccc3Cl)CC1)O[C@H]2CN [Example 116, hydrochloride]", 32.6],
  ["Cc1ccc2c(c1O)C[C@@H](C1CCN(C(=O)Oc3ccccc3)CC1)O[C@H]2CN [Example 113, hydrochloride]", 30.5]
]}

For the next question, use this compound.
What value of Ki has been recorded for this entry: Cc1ccc2c(c1O)C[C@@H](C1CCN(C(=O)Oc3ccc4ccccc4c3)CC1)O[C@H]2CN [Example 123, hydrochloride]
37
